The origin of these recorded values is ChEMBL document CHEMBL3734720.

- assay remarks: Antiproliferative activity against human HaCaT cells assessed as growth inhibition after 48 hrs by SRB assay
- Assay type: cell-based
endpoint label: GI50 at 48 h

Any idea what its GI50 at 48 h is? The compound is COc1cccc2c1C(=O)c1c(O)c3c(c(O)c1C2=O)C[C@@](O)(C(=O)CO)C[C@@H]3O[C@H]1C[C@H](N)[C@H](O)[C@H](C)O1 [DOXORUBICIN]
< 0.046 µM

Sample `COc1ccc(NC(=S)N/N=C/c2cccs2)cc1` — what was its GI50 at 48 h?
> 100 µM

Given the entry `S=C(N/N=C/c1cccs1)Nc1cccc2ccccc12` , report its measured GI50 at 48 h.
82.4 µM

Quick check: GI50 at 48 h of `S=C(NCCc1ccccc1)N/N=C/c1cccs1` ?
> 100 µM

* * *

GI50 listing for selected compounds.
- assay remarks: Antiproliferative activity against human PC3 cells assessed as growth inhibition after 48 hrs by SRB assay
- Assay type: functional
- experimental conditions: PC-3, 48 h

These recorded examples may help you get a feel for the data.
[[record]]
mol = "S=C(N/N=C/c1cccs1)Nc1cccc2ccccc12"
obs_value = "> 100 µM"

[[record]]
mol = "C=CCNC(=S)N/N=C/c1cccs1"
obs_value = "> 100 µM"

[[record]]
mol = "Cc1ccc(NC(=S)N/N=C/c2cccs2)cc1"
obs_value = "29.7 µM"

[[record]]
mol = "COc1ccc(NC(=S)N/N=C/c2cccs2)cc1"
obs_value = "> 100 µM"


For the next question, use this compound.
Report GI50 for `S=C(N/N=C/c1cccs1)Nc1ccc(Cl)cc1` please.
> 100 µM

* * *

- assay remarks: Acute toxicity in Balb/C mouse assessed as survival rate at 600 mg/kg, po
- Format: organism-based
- experimental conditions: in vivo
endpoint label: survival (%)
Write it as a number; the unit % goes unstated.

Field request: survival | item: `S=C(N/N=C/c1cccs1)Nc1ccc(Br)cc1`
100

* * *

# key: entry, value: GI50
- Test system: U-251
- assay remarks: Antiproliferative activity against human U251 cells assessed as growth inhibition after 48 hrs by SRB assay
- Type: functional
- experimental conditions: U-251, 48 h

Please review the entries below; each comes with its answer.
[[record]]
mol = "Cc1ccc(NC(=S)N/N=C/c2cccs2)cc1"
obs_value = "12.6 µM"

[[record]]
mol = "COc1cccc2c1C(=O)c1c(O)c3c(c(O)c1C2=O)C[C@@](O)(C(=O)CO)C[C@@H]3O[C@H]1C[C@H](N)[C@H](O)[C@H](C)O1"
obs_value = "< 0.046 µM"

[[record]]
mol = "CCc1ccc(NC(=S)N/N=C/c2cccs2)cc1"
obs_value = "> 100 µM"


Continue with the molecule presented below.
Form field: reported GI50 of `COc1ccc(NC(=S)N/N=C/c2cccs2)cc1`
> 100 µM

* * *

Each entry below lists one item and its recorded GI50 value.
- Test system: K562
- assay remarks: Antiproliferative activity against human K562 cells assessed as growth inhibition after 48 hrs by SRB assay
- Assay type: functional
- experimental conditions: K562, 48 h

[[record]]
mol = "S=C(N/N=C/c1cccs1)Nc1ccc(Br)cc1"
endpoint_label = "GI50"
obs_value = "> 100 µM"

[[record]]
mol = "COc1cccc2c1C(=O)c1c(O)c3c(c(O)c1C2=O)C[C@@](O)(C(=O)CO)C[C@@H]3O[C@H]1C[C@H](N)[C@H](O)[C@H](C)O1"
endpoint_label = "GI50"
obs_value = "< 0.046 µM"


Value lookup for GI50; key = `S=C(NCCc1ccccc1)N/N=C/c1cccs1`
> 100 µM

State the recorded GI50 for this entry: `S=C(N/N=C/c1cccs1)Nc1cccnc1`
16.4 µM

Need GI50 of `S=C(N/N=C/c1cccs1)Nc1ccc(Cl)cc1` , thanks.
2 µM

* * *

- Test system: K562
- assay remarks: Antiproliferative activity against human K562 cells assessed as growth inhibition after 48 hrs by SRB assay
- Format: functional
- experimental conditions: K562, 48 h
endpoint label: log10 GI50 (log10 of the value in µM)
Heads up: the numbers are on a log10 scale; they represent GI50 in µM.

Solved cases below.
[[record]]
mol = "COc1ccc(NC(=S)N/N=C/c2cccs2)cc1"
obs_value = 0.23

[[record]]
mol = "S=C(N/N=C/c1cccs1)Nc1cccc2ccccc12"
obs_value = 0.26

[[record]]
mol = "CCc1ccc(NC(=S)N/N=C/c2cccs2)cc1"
obs_value = 0.20

[[record]]
mol = "S=C(N/N=C/c1cccs1)Nc1ccccc1"
obs_value = 1.22


Which log10 GI50 value belongs to `C=CCNC(=S)N/N=C/c1cccs1` ?
0.78

* * *

- assay remarks: Acute toxicity in Balb/C mouse assessed as survival rate at 400 mg/kg, po
- Format: organism-based
- experimental conditions: in vivo
endpoint label: survival (%)
Could you give me the number in %? Just the number is fine.

What value of survival has been reported for the following compound? `S=C(N/N=C/c1cccs1)Nc1ccc(Br)cc1`
100

* * *

- Test system: U-251
- assay remarks: Antiproliferative activity against human U251 cells assessed as growth inhibition after 48 hrs by SRB assay
- Assay type: functional
- experimental conditions: U-251, 48 h
Mark each entry YES if its GI50 sits below 10 µM, and NO for all others.

Completed entries (count: 2):
[[record]]
mol = "S=C(N/N=C/c1cccs1)Nc1cccc2ccccc12"
group = "NO"

[[record]]
mol = "S=C(N/N=C/c1cccs1)Nc1ccc(Br)cc1"
group = "YES"


Input `S=C(N/N=C/c1cccs1)Nc1ccc(Cl)cc1` ; condition: GI50 strictly below 10 µM. Does it hold?
YES

Dear colleague, could you confirm whether GI50 of `S=C(NCCc1ccccc1)N/N=C/c1cccs1` falls below 10 µM? Thanks.
NO

Here's an entry: `C=CCNC(=S)N/N=C/c1cccs1` . Is its GI50 below 10 µM?
NO

For this compound, is GI50 lower than 10 µM? `S=C(N/N=C/c1cccs1)Nc1cccnc1`
NO

Lab note: confirm whether the reported GI50 for this compound is below 10 µM, equality not counting. compound: `S=C(N/N=C/c1cccs1)Nc1ccccc1`
NO

* * *

- assay remarks: Antiproliferative activity against human HaCaT cells assessed as growth inhibition after 48 hrs by SRB assay
- Type: cell-based
Entries and their GI50 at 48 h values follow.
Please state the figure in µM; there is no need to write the unit.

[[record]]
mol = "CCc1ccc(NC(=S)N/N=C/c2cccs2)cc1"
endpoint_label = "GI50 at 48 h"
unit_name = "µM"
obs_value = 17.6

[[record]]
mol = "S=C(N/N=C/c1cccs1)Nc1ccc(Cl)cc1"
endpoint_label = "GI50 at 48 h"
unit_name = "µM"
obs_value = 14.7

[[record]]
mol = "S=C(N/N=C/c1cccs1)Nc1ccc(Br)cc1"
endpoint_label = "GI50 at 48 h"
unit_name = "µM"
obs_value = 0.8

[[record]]
mol = "Cc1ccc(NC(=S)N/N=C/c2cccs2)cc1"
endpoint_label = "GI50 at 48 h"
unit_name = "µM"
obs_value = 17.6


# evaluate next
Entry `S=C(N/N=C/c1cccs1)Nc1cccnc1` has what GI50 at 48 h?
45.4

* * *

- assay remarks: Acute toxicity in Balb/C mouse assessed as survival rate at 200 mg/kg, po
- Assay type: organism-based
- experimental conditions: in vivo
endpoint label: survival (%)
Write down the numeric answer in % and omit the unit.

What value of measured survival is listed for `S=C(N/N=C/c1cccs1)Nc1ccc(Br)cc1` ?
100

* * *

- Test system: MCF7
- assay remarks: Antiproliferative activity against human MCF7 cells assessed as growth inhibition after 48 hrs by SRB assay
- Assay type: functional
- experimental conditions: MCF7, 48 h
Reported GI50 values for the following molecules.

A selection of reference data follows.
[[record]]
mol = "S=C(NCCc1ccccc1)N/N=C/c1cccs1"
endpoint_label = "GI50"
obs_value = "> 100 µM"

[[record]]
mol = "S=C(N/N=C/c1cccs1)Nc1ccc(Br)cc1"
endpoint_label = "GI50"
obs_value = "< 0.74 µM"

[[record]]
mol = "CCc1ccc(NC(=S)N/N=C/c2cccs2)cc1"
endpoint_label = "GI50"
obs_value = "> 100 µM"


Request the reported GI50 associated with `COc1cccc2c1C(=O)c1c(O)c3c(c(O)c1C2=O)C[C@@](O)(C(=O)CO)C[C@@H]3O[C@H]1C[C@H](N)[C@H](O)[C@H](C)O1`
< 0.046 µM

Data request, read-out GI50, for `C=CCNC(=S)N/N=C/c1cccs1`
> 100 µM

Recorded GI50 for `S=C(N/N=C/c1cccs1)Nc1cccnc1` , please?
> 100 µM

Could you share which GI50 value was measured for `S=C(N/N=C/c1cccs1)Nc1cccc2ccccc12` ?
> 100 µM

Returns the measured GI50 for the input molecule. Input: `S=C(N/N=C/c1cccs1)Nc1ccccc1`
94.6 µM

Item `Cc1ccc(NC(=S)N/N=C/c2cccs2)cc1` has what recorded GI50?
38.6 µM

Given `COc1ccc(NC(=S)N/N=C/c2cccs2)cc1` , state its recorded GI50.
> 100 µM

Using the record for `S=C(N/N=C/c1cccs1)Nc1ccc(Cl)cc1` , report its GI50.
> 100 µM
